- Tested on: SW 1573
- PROTOCOL_TEXT: relative viability (nuclei count vs DMSO), 5 days (fraction); higher = more cells survive
- STATED_CONDITIONS: first compound 0.2 µM
Grouping by measured relative viability is done with the following cut points: LOW = under 0.2, MEDIUM = from 0.2 up to 0.4, HIGH = 0.4 and over

- COMPOUND: "CCNC(=O)c1noc(-c2cc(C(C)C)c(O)cc2O)c1-c1ccc(CN2CCOCC2)cc1 [Luminespib] + O=C(c1cc(Cc2n[nH]c(=O)c3ccccc23)ccc1F)N1CCN(C(=O)C2CC2)CC1 [Olaparib] (partner 8 µM)"
  TARGET_OR_TEST_SYSTEM: "SW 1573"
  CAT: "LOW"
- COMPOUND: "Cc1csc(=NC2CCCCC2)n1/N=C/c1ccc(O)c(O)c1O [MIM1] + CCNC(=O)c1noc(-c2cc(C(C)C)c(O)cc2O)c1-c1ccc(CN2CCOCC2)cc1 [Luminespib] (partner 0.01 µM)"
  TARGET_OR_TEST_SYSTEM: "SW 1573"
  CAT: "MEDIUM"
- COMPOUND: "CN1CCN(CCOc2cc(OC3CCOCC3)c3c(Nc4c(Cl)ccc5c4OCO5)ncnc3c2)CC1 [Saracatinib] + N=C(N)NC(=N)NCCc1ccccc1 [Phenformin] (partner 250 µM)"
  TARGET_OR_TEST_SYSTEM: "SW 1573"
  CAT: "MEDIUM"
- COMPOUND: "Cc1csc(=NC2CCCCC2)n1/N=C/c1ccc(O)c(O)c1O [MIM1] + CS(=O)(=O)CCNCc1ccc(-c2ccc3ncnc(Nc4ccc(OCc5cccc(F)c5)c(Cl)c4)c3c2)o1 [Lapatinib] (partner 2 µM)"
  TARGET_OR_TEST_SYSTEM: "SW 1573"
  CAT: "HIGH"
- COMPOUND: "CN1CCN(CCOc2cc(OC3CCOCC3)c3c(Nc4c(Cl)ccc5c4OCO5)ncnc3c2)CC1 [Saracatinib] + C[C@]1(O)C[C@@H](c2nc(-c3ccc4ccc(-c5ccccc5)nc4c3)c3c(N)nccn32)C1 [Linsitinib] (partner 1 µM)"
  TARGET_OR_TEST_SYSTEM: "SW 1573"
  CAT: "HIGH"
- COMPOUND: "CCNC(=O)c1noc(-c2cc(C(C)C)c(O)cc2O)c1-c1ccc(CN2CCOCC2)cc1 [Luminespib] + C[C@@H](Oc1cc(-c2cnn(C3CCNCC3)c2)cnc1N)c1c(Cl)ccc(F)c1Cl [Crizotinib] (partner 1 µM)"
  TARGET_OR_TEST_SYSTEM: "SW 1573"
  CAT: "LOW"
- COMPOUND: "Cc1csc(=NC2CCCCC2)n1/N=C/c1ccc(O)c(O)c1O [MIM1] + Cc1cc(Nc2cc(N3CCN(C)CC3)nc(Sc3ccc(NC(=O)C4CC4)cc3)n2)n[nH]1 [Tozasertib] (partner 0.1 µM)"
  TARGET_OR_TEST_SYSTEM: "SW 1573"
  CAT: "MEDIUM"
- COMPOUND: "CN1CCN(CCOc2cc(OC3CCOCC3)c3c(Nc4c(Cl)ccc5c4OCO5)ncnc3c2)CC1 [Saracatinib] + CCNC(=O)c1noc(-c2cc(C(C)C)c(O)cc2O)c1-c1ccc(CN2CCOCC2)cc1 [Luminespib] (partner 0.01 µM)"
  TARGET_OR_TEST_SYSTEM: "SW 1573"
  CAT: "MEDIUM"
